Data credit: patent US6900193B1

// BINDING AFFINITY Progester lookup, one value per entry
target: progesterone receptor (estrogen-primed rabbit uterus) (Oryctolagus cuniculus, UniProt P06186); construct: preparation of cytosols for the progesterone and glucocorticoid receptor assays; from tissue; host or cells: uterus of estradiol-primed immature female New Zealand White rabbits (cytosol); assay: Relative binding affinity, progesterone receptor; conditions: Table 2; estrogen-primed rabbit uterus; progesterone = 100%
Sequence (P06186 whole entry): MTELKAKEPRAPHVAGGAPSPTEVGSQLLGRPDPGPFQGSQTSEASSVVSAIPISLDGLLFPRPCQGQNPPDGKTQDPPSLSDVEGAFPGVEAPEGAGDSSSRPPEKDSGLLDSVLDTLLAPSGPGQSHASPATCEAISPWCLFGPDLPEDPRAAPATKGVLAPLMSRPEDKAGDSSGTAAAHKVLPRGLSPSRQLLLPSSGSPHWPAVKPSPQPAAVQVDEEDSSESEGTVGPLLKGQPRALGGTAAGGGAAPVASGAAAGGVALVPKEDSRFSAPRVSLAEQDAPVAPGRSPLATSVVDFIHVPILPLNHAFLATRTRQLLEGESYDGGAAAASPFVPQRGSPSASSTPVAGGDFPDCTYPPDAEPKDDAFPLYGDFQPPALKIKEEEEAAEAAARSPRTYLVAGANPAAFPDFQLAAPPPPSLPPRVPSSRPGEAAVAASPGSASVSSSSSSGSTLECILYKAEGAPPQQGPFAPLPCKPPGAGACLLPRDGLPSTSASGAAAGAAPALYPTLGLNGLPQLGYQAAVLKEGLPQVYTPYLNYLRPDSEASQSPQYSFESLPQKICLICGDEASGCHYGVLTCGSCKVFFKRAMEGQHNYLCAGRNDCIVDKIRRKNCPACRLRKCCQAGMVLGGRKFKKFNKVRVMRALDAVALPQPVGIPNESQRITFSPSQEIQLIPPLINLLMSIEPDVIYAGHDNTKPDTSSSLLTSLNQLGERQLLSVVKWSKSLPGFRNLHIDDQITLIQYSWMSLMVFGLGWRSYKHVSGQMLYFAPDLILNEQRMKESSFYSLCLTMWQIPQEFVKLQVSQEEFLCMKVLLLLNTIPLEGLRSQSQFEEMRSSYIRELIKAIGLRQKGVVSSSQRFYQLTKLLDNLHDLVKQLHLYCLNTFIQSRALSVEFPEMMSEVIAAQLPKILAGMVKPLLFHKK
recorded.metric: BINDING AFFINITY Progester

compound	result
CC(=O)OCC(=O)[C@@]1(OC(C)=O)CC[C@H]2[C@@H]3CCC4=CC(=O)CCC4=C3[C@@H](c3ccc(C(C)=O)cc3)C[C@@]21C [Compound 106b]	136%
COC1(C(C)=O)CCC2C3CCC4=CC(=O)CCC4=C3C(c3ccc(N4CCCCC4)cc3)CC21C (stereo not drawn) [Compound 97b]	47%
CC(=O)O[C@]1(C(C)=O)CC[C@H]2[C@@H]3CCC4=CC(=O)CCC4=C3[C@@H](c3ccc(N4CCCC4)cc3)C[C@@]21C [Compound 70]	79%
